Origin of measurements: paper PMC8822125

Measured Hemolytic rate, 300 μg/mL, listed per entry for reference.
# System: sheep red blood cells;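 further: hemolysis expressed in % from supernatant absorbance, with PBS-treated cells as 0% baseline and melittin as 100%, peptide mixed 1:1 with an 8% v/v erythrocyte suspension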
# ASSAY SETUP: 300 μg/mL peptide; sheep red blood cells in PBS, 37°C, 1 h, OD576, relative to melittin; mean ± SD, three repeats
Where a SMILES comes first, the peptide text is derived from it.
METRIC: Hemolytic rate, 300 μg/mL (%)

>  <COMPOUND>
CC[C@H](C)[C@H](NC(=O)[C@H](CCCNC(=N)N)NC(=O)[C@H](CCCNC(=N)N)NC(=O)[C@H](Cc1ccccc1)NC(=O)[C@@H](CC(C)C)NC(=O)[C@H](CCCNC(=N)N)NC(=O)[C@@H](N)CCCNC(=N)N)C(=O)N[C@@H](CC(C)C)C(=O)N[C@@H](CCCNC(=N)N)C(=O)N[C@@H](Cc1c[nH]c2ccccc12)C(=O)N[C@@H](CC(C)C)C(N)=O [RW-BP100-3D] (HELM PEPTIDE1{R.R.[dL].F.R.R.I.L.R.W.L.[am]}$$$$V2.0)

>  <NUMERIC READOUT>
55.73

$$$$
>  <COMPOUND>
CC[C@@H](C)[C@@H](NC(=O)[C@H](CCCNC(=N)N)NC(=O)[C@H](CCCNC(=N)N)NC(=O)[C@H](Cc1ccccc1)NC(=O)[C@H](CC(C)C)NC(=O)[C@H](CCCNC(=N)N)NC(=O)[C@@H](N)CCCNC(=N)N)C(=O)N[C@@H](CC(C)C)C(=O)N[C@@H](CCCNC(=N)N)C(=O)N[C@@H](Cc1c[nH]c2ccccc12)C(=O)N[C@@H](CC(C)C)C(N)=O [RW-BP100-7D] (HELM PEPTIDE1{R.R.L.F.R.R.[dI].L.R.W.L.[am]}$$$$V2.0)

>  <NUMERIC READOUT>
45.65

$$$$
>  <COMPOUND>
CC[C@H](C)[C@H](NC(=O)[C@H](CCCNC(=N)N)NC(=O)[C@H](CCCNC(=N)N)NC(=O)[C@H](Cc1ccccc1)NC(=O)[C@H](CC(C)C)NC(=O)[C@H](CCCNC(=N)N)NC(=O)[C@H](N)CCCNC(=N)N)C(=O)N[C@@H](CC(C)C)C(=O)N[C@@H](CCCNC(=N)N)C(=O)N[C@@H](Cc1c[nH]c2ccccc12)C(=O)N[C@@H](CC(C)C)C(N)=O [RW-BP100-1D] (HELM PEPTIDE1{[dR].R.L.F.R.R.I.L.R.W.L.[am]}$$$$V2.0)

>  <NUMERIC READOUT>
52.88

$$$$
